target: EGFR(h) (Homo sapiens, UniProt P00533); experiment: Kinase Profiling Assay; assay type: biochemical; settings: 100 μM
Reported % activity values for the following sequences.

residue.string | measured.on | % activity [%]
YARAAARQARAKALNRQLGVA [MMI-0200] | EGFR(h) (Homo sapiens, UniProt P00533) | 83
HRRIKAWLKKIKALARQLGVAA [MMI-0500] | EGFR(h) (Homo sapiens, UniProt P00533) | −1
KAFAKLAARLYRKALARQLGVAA [MMI-0400] | EGFR(h) (Homo sapiens, UniProt P00533) | 16
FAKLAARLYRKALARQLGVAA [MMI-0300] | EGFR(h) (Homo sapiens, UniProt P00533) | 21

src = patent US20190134153A1
